target: Methylcytosine dioxygenase TET2 (Homo sapiens); assay: Inhibition of recombinant human C-terminal His/N-terminal FLAG-tagged TET2 (1129 to 2002 residues) expressed in baculovirus infected sf9 cells assessed as reduction in oxidation of methylated dsDNA at 100 uM after 2 hrs by chemiluminescence assay relative to control
Activity calls are given as the source filed them. The rule behind the calls is not given here.
measure.name: inhibition

Look over these answered cases.
Nc1nc(=O)n(-c2ccccc2)cc1Cl | 43%
Nc1nc(=O)n(-c2ccc(-c3ccccc3)cc2)cc1Cl | inactive
Nc1ccn(-c2ccccc2)c(=O)n1 | inactive
Nc1nc(=O)n(-c2ccccc2-c2ccccc2)cc1Cl | inactive

Now let's try a different one.
Data request, read-out inhibition, for `Nc1nc(=O)n(-c2ccccc2)cc1C(F)(F)F`
inactive
